B1: CCDC6 (parent)
chain: ASVTIQARAEQEEEFISNTLFKKI

Variants of: B1
Assay: protein stability index of a GFP-peptide fusion (GPS, HEK-293T) (PSI 1-6); higher = more stable;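 also: lentivirally expressed fusions sorted by FACS into six bins by GFP to DsRed ratio, PSI derived from sequencing read proportions per bin multiplied by bin number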
Conditions: c terminus: a fixed tail appended
protein stability index overview
Response field accepts a number only; no unit should be typed.

>>> numeric_result("ASVTIQARAEQEEEFKSNTLFKKI [I16K]")
4.53
>>> numeric_result("ASVTTQARAEQEEEFISNTLFKKI [I5T]")
4.28

Q) Returns the measured protein stability index for the input variant. Input: AGVTIQARAEQEEEFISNTLFKKI [S2G]
A) 3.92

Q) Thanks! And ASKTIQARAEQEEEFISNTLFKKI [V3K] ?
A) 4.33

Q) // repeat for ASVTIQARAEQEEEFISNTSFKKI [L20S] and report
A) 4.68

Q) What about ASVTIQARAHQEEEFISNTLFKKI [E10H] ?
A) 3.25

Q) Similarly, ASVTIQARAEQEESFISNTLFKKI [E14S] ?
A) 2.79

Q) Would you kindly repeat that for ASVTIQARAEQEETFISNTLFKKI [E14T] ?
A) 2.87

Q) ACVTIQARAEQEEEFISNTLFKKI [S2C] ?
A) 2.84
